- test: chemical genetic growth profiling, strain panel (AID 1159580);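 further: tested at 20 µM; growth read once vehicle control cultures reached saturation at 30 °C; lower values mean less growth of the strain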
- test settings: S. cerevisiae deletion strains, growth OD, locus YJL092W, strain hpr5
About 2,000 (36%) of roughly 5,500 compounds were called active. Inconclusive results (about 18%) are left out. No stated cut-off is given here; in the data, active means normalized growth mostly below about 0.91 (no sharp cut-off); inconclusive means no clear call, values can overlap the other calls; inactive means mostly above about 0.92. This is one part of the list.
Hi there, use one of these labels in your reply, thanks! active, inactive

# count of solved cases: 10
CC[C@H]1OC(=O)[C@H](C)[C@@H](O[C@H]2C[C@@](C)(OC)[C@@H](O)[C@H](C)O2)[C@H](C)[C@@H](O[C@@H]2O[C@H](C)C[C@H](N(C)C)[C@H]2O)[C@](C)(O)C[C@@H](C)/C(=N/OCOCCOC)[C@H](C)[C@@H](O)[C@]1(C)O
inactive
CC(C)=CCC/C(C)=C/CO
inactive
O=c1c(O)c(-c2ccccc2)oc2cccc(O)c12
active
CC1=C(C(=O)O)N2C(=O)[C@@H](NC(=O)[C@@H](N)c3ccc(O)cc3)[C@H]2SC1
inactive
CNC(=O)Oc1ccccc1OC(C)C
inactive
CC(C)CCCC(C)N (stereo not drawn)
inactive
CCCCCCCCCCCCCCCC(=O)OC[C@H](NC(=O)C(Cl)Cl)[C@H](O)c1ccc([N+](=O)[O-])cc1
inactive
CON
inactive
COC(=O)C[C@H]1C(C)(C)[C@@H](OC(C)=O)[C@@H]2CC3=C4CC(=O)O[C@@H](c5ccoc5)[C@]4(C)CCC3[C@@]1(C)C2=O (stereo partly drawn)
inactive
CCCC(=O)Nc1ccc(OCC(O)CNC(C)C)c(C(C)=O)c1 (stereo not drawn)
inactive

Exercise: Recorded test call requested for Cc1cc(O)c2c(c1)C(=O)c1cccc(O)c1C2=O
Key: inactive

Exercise: Fill in: this test's call for CC1CC(OC(=O)c2ccccc2O)CC(C)(C)C1 (stereo not drawn) is ___
Key: inactive

Exercise: Tell me the assay call for O=c1c(O)c(-c2ccc(O)cc2)oc2ccccc12 please.
Key: inactive
